Numbers sourced from PubChem BioAssay (NCI).

System: HOP-92 NSCLC
method description: NCI tumour cell line growth inhibition, 48 h

molecule: COc1cc2c(=O)n(CCN(C)C)c3c4cc5c(cc4ccc3c2cc1OC)OCO5
GI50: 0.505 µM

molecule: COc1cc(NCCN=C(N)NC(N)=NC(C)C)c2ncccc2c1
GI50: 3.59 µM

molecule: O=C(C[P+](c1ccccc1)(c1ccccc1)c1ccccc1)C[P+](c1ccccc1)(c1ccccc1)c1ccccc1
GI50: 0.0696 µM

molecule: Cc1cc(Nc2cc(N3CCN(C)CC3)nc(Sc3ccc(NC(=O)C4CC4)cc3)n2)n[nH]1
GI50: 0.989 µM

molecule: Cc1c(C(N)=O)sc2c1c(=O)n(Cc1ccccc1)c1nnc(-c3ccc(Br)cc3)n21
GI50: 5.09 µM

molecule: O=C(c1ccccc1)n1c(-c2ccccc2)cs/c1=N\S(=O)(=O)c1ccc(N2N=C3c4ccccc4CC3C2c2cccs2)cc1 (stereo not given)
GI50: > 100 µM

molecule: NC(=S)N=Nc1c(O)c2ccccc2c2ccccc12
GI50: 18.4 µM

molecule: CCOC(=O)c1ccc2c(c1)[n+](=O)c(C(C)=O)c(C(F)(F)F)n2[O-]
GI50: 1.4 µM

molecule: O=c1oc2ccc(-c3ccc(F)cc3F)cc2c(=O)n1-c1ccc(Cl)c(C(F)(F)F)c1
GI50: 1.58 µM

molecule: ClCc1cccc(CSc2ncnc3c2ncn3Cc2cccc(CCl)c2)c1
GI50: 1.64 µM

molecule: Cc1cnc(Nc2ccc(N3CCN(C)CC3)cc2)nc1Nc1ccc(Cl)c(NS(=O)(=O)C(C)(C)C)c1
GI50: 0.17 µM

molecule: O=C(N/N=C/c1cc(Cl)cc(Cl)c1[O-])c1ccccc1.O=C(N/N=C/c1cc(Cl)cc(Cl)c1[O-])c1ccccc1.[Co+2]
GI50: 5.71 µM

molecule: Cc1cn(-c2ccc(S(C)(=O)=O)cc2)c(-c2ccc(Cl)cc2)n1
GI50: > 100 µM

molecule: Nc1nc(=O)n([C@@H]2CS[C@H](CO)O2)cc1F
GI50: > 100 µM

molecule: C=C1C(=O)O[C@H]2[C@H]1CC/C(COC(=O)NCCc1c[nH]c3ccc(Cl)cc13)=C\CC[C@@]1(C)O[C@@H]21
GI50: 1.4 µM

###

Tested on: SR leukemia
method description: NCI tumour cell line growth inhibition, 48 h; in the data active = GI50 below about 0.43 µM; inactive = the rest
Outcomes: class 1 (active), class 0 (inactive)

compound: CN(C)c1ccc(/C=c2/c3ccccc3n3c2c2cc(F)ccc2[n+]3C)cc1
class assignment: class 1
--
compound: C=C1C(=O)O[C@H]2[C@H]1CC/C(COC(=O)NCCc1c[nH]c3ccc(Cl)cc13)=C\CC[C@@]1(C)O[C@@H]21
class assignment: class 0
--
compound: CC1=C(C)C2(O)C(=C(C)C1=O)/C(=C(/O)c1ccccc1)c1nc3ccccc3n12 (stereo not given)
class assignment: class 0
--
compound: c1ccc([As]=[As]c2ccccc2)cc1 (stereo not given)
class assignment: class 1
--
compound: Cc1ccc(-c2nc([P+](c3ccccc3)(c3ccccc3)c3ccccc3)c(Nc3ccccc3)o2)cc1
class assignment: class 1
--
compound: O=C(NCCNc1nccc(-c2c(-c3cccc(O)c3)nc3sccn23)n1)c1ccccc1
class assignment: class 0
--
compound: N#CN1CC[C@H](C(=O)Nc2cc3cc(C(N)=O)ccc3cn2)C1
class assignment: class 1
--
compound: Cc1cc(Cl)ccc1Nc1nc(C(F)(F)F)ccc1C(=O)N/N=C/c1ccccc1Cl
class assignment: class 1
--
compound: COc1cc2c(=O)n(CCN(C)C)c3c4cc5c(cc4ccc3c2cc1OC)OCO5
class assignment: class 1
--
compound: CC1=C[C@H]2C[C@H](C)[C@H]3CC[C@H](C)[C@]4(C1)C(=O)C(O)=C(C)C(=O)[C@@]324
class assignment: class 0

###

Tested on: SK-MEL-28 melanoma
method description: NCI tumour cell line growth inhibition, 48 h
Where a SMILES comes first, the peptide text is derived from it. The star is where a group is joined. Cbz = O=C(OCc1ccccc1)*; NHNH2 = NN*
outcome measure: TGI

compound: CCCN(CCC)c1c([N+](=O)[O-])cc(C(=O)N(CCO)CCO)cc1[N+](=O)[O-]
result: > 100 µM

compound: CC1(C)OC[C@@H](O)[C@H](Br)CO1
result: > 100 µM

compound: C=C1C(=O)O[C@H]2[C@H]1CC/C(COC(=O)NCCc1c[nH]c3ccc(Cl)cc13)=C\CC[C@@]1(C)O[C@@H]21
result: 3.43 µM

compound: CC[C@H](C)C1=C(O)[N@+]2([O-])Oc3ccc(-c4c(O)c(O)c(-c5ccc(O)cc5)c(OC(C)=O)c4OC(C)=O)cc3O[C@]2([C@@H](C)CC)C(=O)N1O
result: > 50 µM

compound: CCOC(=O)Cc1cnc(NC(NC(=O)CC)(C(F)(F)F)C(F)(F)F)s1
result: > 100 µM

compound: CCOC(=O)C(CNc1ccc(O)cc1)NC(=O)c1ccccc1 (stereo unspecified)
result: > 100 µM

compound: COc1ccc2c3c1OC1C34CCN(C)C(C2)C4=CC(I)C1(OC)OC (stereo unspecified)
result: 25.9 µM

compound: Cc1nc2sccn2c1C(=O)NC(=O)Nc1ccc(Cl)cc1
result: > 100 µM

compound: COC1C2c3cc4c(cc3CC(C#N)(c3ccccc32)N1C(=O)c1ccccc1)OCO4 (stereo unspecified)
result: > 100 µM

compound: CCOC(=O)CCC(NC(=O)OCc1ccccc1)C(=O)NC(CCC(=O)OCC)C(=O)NN (stereo unspecified) (Cbz-Glu(OEt)-Glu(OEt)-NHNH2; configuration not given here)
result: > 100 µM

compound: NC(Cc1ncccn1)C(=O)O (stereo unspecified)
result: > 100 µM

###

Catalogue of TGI values
Tested on: SW-620 colon
method description: NCI tumour cell line growth inhibition, 48 h
outcome measure: TGI

compound: N#Cc1c(-c2ccc(Cl)cc2)c2c(N=Nc3c(O)ccc4ccccc34)[nH]nc2[nH]c1=O
outcome measure: TGI
result: 2.31 µM
//
compound: NCCCCCCNCc1cccc2ccccc12
outcome measure: TGI
result: > 100 µM
//
compound: Cc1ccc(C)c(NC(=O)CC2SC(=Nc3ccccc3Cl)NC2=O)c1 (stereo unspecified)
outcome measure: TGI
result: > 100 µM
//
compound: CN(C)CCNC(=O)c1cccc2ccc(-c3ccc(-c4ccccc4)cc3)nc12
outcome measure: TGI
result: 4.74 µM
//
compound: CCOC(=O)c1c(N2CCCC2)ncn(C)c1=S
outcome measure: TGI
result: > 100 µM
//
compound: O=c1[nH]c(=O)n(C2CC(O)C(CO)O2)cc1C#Cc1ccc(F)cc1 (stereo unspecified)
outcome measure: TGI
result: > 100 µM

###

Tested on: OVCAR-5 ovarian
method description: NCI tumour cell line growth inhibition, 48 h
Catalogue of TGI values

compound: CC(C)/C(=N\[N+](C)(C)C)c1ccccc1
measurement target: OVCAR-5 ovarian
readout unit: µM
measurement qualifier: >
TGI: 100
//
compound: Cc1cn(-c2ccc(S(C)(=O)=O)cc2)c(-c2ccc(Cl)cc2)n1
measurement target: OVCAR-5 ovarian
readout unit: µM
measurement qualifier: >
TGI: 100
//
compound: CC1(C)CCCCCC(C)(CCCO)C1=O (stereo not given)
measurement target: OVCAR-5 ovarian
readout unit: µM
measurement qualifier: >
TGI: 100
//
compound: Cc1cccc2c(N)c3cccc(C(=O)NCC[N+]4(Cc5ccc([N+](=O)[O-])cc5)CCOCC4)c3nc12
measurement target: OVCAR-5 ovarian
readout unit: µM
measurement qualifier: >
TGI: 100
//
compound: COc1nc2c(c(=O)n1C)N=C(c1ccc(Cl)cc1)CC(c1ccccc1)N2 (stereo not given)
measurement target: OVCAR-5 ovarian
readout unit: µM
measurement qualifier: =
TGI: 78.7
//
compound: ClCc1cccc(CSc2ncnc3c2ncn3Cc2cccc(CCl)c2)c1
measurement target: OVCAR-5 ovarian
readout unit: µM
measurement qualifier: =
TGI: 3.99
//
compound: N#Cc1c(-c2ccc(Cl)cc2)c2c(N=Nc3c(O)ccc4ccccc34)[nH]nc2[nH]c1=O
measurement target: OVCAR-5 ovarian
readout unit: µM
measurement qualifier: =
TGI: 2.73
//
compound: COc1ccc(C2C3CCCC(C3=O)C(c3ccc(OC)cc3)N2N=O)cc1 (stereo not given)
measurement target: OVCAR-5 ovarian
readout unit: µM
measurement qualifier: >
TGI: 100
//
compound: CSc1c(CC(=O)Nc2ccc(Cl)cc2)n(Cc2ccccc2)c2ccccc12
measurement target: OVCAR-5 ovarian
readout unit: µM
measurement qualifier: >
TGI: 100
//
compound: c1ccc2c(c1)ccn1ccc3c4ccccc4nc-3c21
measurement target: OVCAR-5 ovarian
readout unit: µM
measurement qualifier: =
TGI: 2.36

###

System: NCI/ADR-RES ovarian
method description: NCI tumour cell line growth inhibition, 48 h

compound: Cc1ccc(NCCN(C)C)c2c(=O)c3ccccc3sc12
GI50: 1.93 µM

compound: CCS(=O)(=O)c1ccc(OC)c(Nc2ncc(-c3ccccc3Cl)o2)c1
GI50: 8.03 µM

compound: Nc1ccccc1C#C/C=C\C#Cc1c(F)c(F)c(F)c(F)c1F
GI50: 19.5 µM

compound: Cc1ccc(-c2nc(-c3cn(C)c4ncccc34)cs2)cc1
GI50: 1.42 µM

compound: COc1cc(-n2ccnc2)cc(OC)c1OC
GI50: 34.2 µM

compound: O=C(CC(=O)c1cccc(Cl)c1)c1cccc(Cl)c1
GI50: 2.06 µM

compound: CN1CCN(Cc2ccc3c(NNC(=O)c4ccccc4)nc4cc(F)ccc4n23)CC1
GI50: 0.22 µM

compound: COc1ccc(C2C=C(c3ccc(Cl)cc3)N=C3SC=C(C)N32)c(Br)c1 (stereo unspecified)
GI50: 4.22 µM

compound: CCCCCCCC(=O)OCC(=O)[C@]1(O)Cc2c(O)c3c(c(O)c2[C@@H](OC2CC(N)C(O)C(C)O2)C1)C(=O)c1c(OC)cccc1C3=O (stereo partly specified)
GI50: 1.67 µM

compound: CNS(=O)(=O)OCC1OC(n2cnc3c(N)ncnc32)C(O)C1O (stereo unspecified)
GI50: > 100 µM

compound: Cc1cc(Cl)ccc1Nc1nc(C(F)(F)F)ccc1C(=O)N/N=C/c1ccccc1Cl
GI50: 1.19 µM
